# IC50 listing for each entry below
- assay target: Prostaglandin G/H synthase 2 (Homo sapiens, UniProt P35354)
- Sequence (P35354 whole entry): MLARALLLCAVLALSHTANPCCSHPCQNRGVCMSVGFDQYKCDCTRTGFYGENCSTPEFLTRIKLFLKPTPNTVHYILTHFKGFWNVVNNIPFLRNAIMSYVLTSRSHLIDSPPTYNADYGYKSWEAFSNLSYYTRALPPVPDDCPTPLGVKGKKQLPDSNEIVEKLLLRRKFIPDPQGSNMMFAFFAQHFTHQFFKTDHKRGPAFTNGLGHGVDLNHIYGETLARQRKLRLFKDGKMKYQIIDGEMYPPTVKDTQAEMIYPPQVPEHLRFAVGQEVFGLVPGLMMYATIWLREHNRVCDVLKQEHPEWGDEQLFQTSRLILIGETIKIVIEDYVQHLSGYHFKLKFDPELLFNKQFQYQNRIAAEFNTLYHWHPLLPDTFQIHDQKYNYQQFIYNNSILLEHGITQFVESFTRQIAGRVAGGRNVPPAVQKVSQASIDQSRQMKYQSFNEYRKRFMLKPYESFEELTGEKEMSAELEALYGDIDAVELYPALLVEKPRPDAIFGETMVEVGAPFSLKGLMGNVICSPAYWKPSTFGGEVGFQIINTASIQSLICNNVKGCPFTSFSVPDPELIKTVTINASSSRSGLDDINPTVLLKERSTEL
- test description: Inhibition of human recombinant COX2 by enzyme immuno assay
result type: IC50 (µM)

compound: CC(C(=O)O)c1ccc(-c2ccn(C(F)F)c(=O)c2)cc1 (stereo not given)
result type: IC50
reported: 2.4

compound: O=C(O)Cc1ccc(-c2ccn(C(F)F)c(=O)c2)cc1
result type: IC50
reported: 0.89

compound: O=C(O)Cc1ccccc1-c1ccn(C(F)F)c(=O)c1
result type: IC50
reported: 0.86

compound: O=C(O)Cc1cccc(-c2ccn(C(F)F)c(=O)c2)c1
result type: IC50
reported: 11.1

compound: CC(C(=O)O)c1ccccc1-c1ccn(C(F)F)c(=O)c1 (stereo not given)
result type: IC50
reported: 2.6

====

- test description: Inhibition of potato 5-Lipoxygenase by enzyme immuno assay
- Design: species or system Solanum tuberosum
pIC50: −log10 of the molar value.
# pIC50 listing for each entry below

molecule: CC(C(=O)O)c1ccc(-c2ccn(C(F)F)c(=O)c2)cc1 (stereo unspecified)
pIC50: 5.52
--
molecule: O=C(O)Cc1cccc(-c2ccn(C(F)F)c(=O)c2)c1
pIC50: 6.43
--
molecule: O=C(O)Cc1ccc(-c2ccn(C(F)F)c(=O)c2)cc1
pIC50: 5.46
--
molecule: O=C(O)/C=C/c1ccc(O)c(O)c1
pIC50: 5.40
--
molecule: CC(C(=O)O)c1ccccc1-c1ccn(C(F)F)c(=O)c1 (stereo unspecified)
pIC50: 5.70
--
molecule: O=C(O)Cc1ccccc1-c1ccn(C(F)F)c(=O)c1
pIC50: 6.70
